Cited source for all entries: patent US10907134B2

# TEST_DESCRIPTION: Substrate specificities of KAZ mutants (ZZ-fused, crude enzyme), f-CTZ
# Assay type: biochemical
# CONDITION_CONTEXT: 1 μg substrate, integrated for 60 seconds
# if measured Relative Luminescence Activity f-CTZ Int. < 5: True  # else: False

input: Just wondering, is Relative Luminescence Activity f-CTZ Int. of KAZ-V44I-A54I: KAZ mutant with two amino acid substitutions V44I and A54I, SEQ ID NO: 10 (protein) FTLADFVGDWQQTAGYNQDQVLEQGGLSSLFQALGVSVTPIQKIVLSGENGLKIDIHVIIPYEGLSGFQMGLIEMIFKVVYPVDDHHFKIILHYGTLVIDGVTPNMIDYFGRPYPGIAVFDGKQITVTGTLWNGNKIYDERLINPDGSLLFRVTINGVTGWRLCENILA below 5?
output: False

input: Just wondering, is Relative Luminescence Activity f-CTZ Int. of KAZ-V44I: KAZ with single amino acid substitution V44I, SEQ ID NO: 4 (protein) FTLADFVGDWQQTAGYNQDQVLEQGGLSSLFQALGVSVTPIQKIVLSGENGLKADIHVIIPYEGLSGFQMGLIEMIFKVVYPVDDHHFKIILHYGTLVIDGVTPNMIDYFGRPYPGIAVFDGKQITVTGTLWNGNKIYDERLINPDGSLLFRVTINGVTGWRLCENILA below 5?
output: True

input: Just wondering, is Relative Luminescence Activity f-CTZ Int. of KAZ-Y138I: KAZ with single amino acid substitution Y138I, SEQ ID NO: 8 (protein) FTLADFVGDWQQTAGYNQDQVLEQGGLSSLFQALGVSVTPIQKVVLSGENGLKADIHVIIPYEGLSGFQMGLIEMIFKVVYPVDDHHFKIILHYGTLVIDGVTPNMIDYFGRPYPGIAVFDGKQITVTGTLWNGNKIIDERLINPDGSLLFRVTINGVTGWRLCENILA below 5?
output: True

input: Just wondering, is Relative Luminescence Activity f-CTZ Int. of KAZ-V44I-A54I-Y138I: KAZ mutant with three amino acid substitutions V44I, A54I and Y138I, SEQ ID NO: 16 (protein) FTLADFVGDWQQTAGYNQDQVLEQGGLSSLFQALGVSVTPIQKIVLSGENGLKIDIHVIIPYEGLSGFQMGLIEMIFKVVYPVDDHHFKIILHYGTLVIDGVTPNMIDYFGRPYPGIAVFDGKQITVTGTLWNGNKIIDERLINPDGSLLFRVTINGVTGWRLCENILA below 5?
output: False

input: Just wondering, is Relative Luminescence Activity f-CTZ Int. of KAZ-V44I-Y138I: KAZ mutant with two amino acid substitutions V44I and Y138I, SEQ ID NO: 12 (protein) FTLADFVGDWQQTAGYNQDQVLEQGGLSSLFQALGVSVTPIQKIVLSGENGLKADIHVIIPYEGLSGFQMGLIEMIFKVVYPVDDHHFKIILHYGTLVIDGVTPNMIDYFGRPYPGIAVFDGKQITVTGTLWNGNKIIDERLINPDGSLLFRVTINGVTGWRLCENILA below 5?
output: False
